Values were extracted from ChEMBL document CHEMBL1157539.

System: Plasmodium falciparum
test: GSK_TCMDC: Inhibition of Plasmodium falciparum Dd2 in whole red blood cells, using parasite LDH activity as an index of growth. Test compounds present at 2uM
Assay type: functional
measurement_kind: Inhibition (%)
Your answer is read as %, so omit the unit and give the number.

molecule | tested_system | measure_unit | Inhibition
Cn1c(Cc2ccccc2)nnc1Sc1ccc(C#N)c([N+](=O)[O-])c1 | Plasmodium falciparum | % | 29

Form field: reported Inhibition of "COc1cc(F)c2ncc(Cl)c(CCN3CCC(NCc4ccc5c(c4)OCCO5)CC3)c2c1.Cl"
92

Subsequent entry: "NS(=O)(=O)c1cccc(-c2ccc3ncc(N4CCOCC4)nc3c2)c1"
74

Now the same for "CC(C)(CNCc1cccc(Oc2cccc(C(F)(F)F)c2)c1)c1nc(-c2ccnc(N)n2)c(-c2ccc(Cl)c(O)c2)[nH]1.Cl"
98

Let us now turn to "Cc1nc(C)c(-c2ccc(Oc3ccc(Cl)cc3Cl)cc2)c(O)c1Br"
94

Proceed to "CCn1ccc2c(N3CCCCS3(=O)=O)cc(C(=O)N[C@@H](Cc3ccccc3)[C@H](O)CNC3CCCCC3)cc21"
98

Another molecule to check: "COc1ccc2c(=NN=Cc3cccnc3)cc(C)[nH]c2c1"
12

Now try "Cl.NC[C@H](CC1CCCCC1)NC(=O)c1ccc(-c2ccnc3[nH]ccc23)s1" .
4

Would you kindly repeat that for CCOc1ccc(C(C)NC(=O)c2ccc(OC)c(Br)c2)cc1OCC (centres undefined) ?
100

Could you do the same for Cc1ccccc1C1CCN(C2CCC(NC(=O)c3ccc(-c4cccc(C(F)(F)F)c4)o3)CC2)CC1 (centres undefined) , please?
100

Try this molecule next: Cc1cc(-c2ccc3c(c2)CCN(CCC2CCC(NC(=O)/C=C/c4cccc(F)c4)CC2)CC3)on1.Cl (centres undefined)
19

Moving on to the next molecule: CC(C)(C)c1ccc(CN2CCC(CNC(=O)c3cc(-c4ccccc4Cl)cs3)C2)cc1.O=C(O)C(F)(F)F (centres undefined)
56

And then CCOC(=O)c1cn(CC)c2cc(F)c(OC3CC4CCC3(C)C4(C)C)cc2c1=O (centres undefined) , what is it?
70

Record: "COc1ccccc1N1CCN(CCCCNC(=O)c2ccc(NC(=O)c3ccc(C(F)(F)F)cc3)cc2)CC1"
37

What would you report for "Br.CC(C)(C)OC(=O)N[C@@H](CS(=O)(=O)CCNC(=N)COCc1ccccc1)C(=O)OC(C)(C)C" ?
76

---

In this section we review reported Inhibition values for a set of compounds.
Test system: Plasmodium falciparum
test: GSK_TCMDC: Inhibition of Plasmodium falciparum 3D7 in whole red blood cells, using parasite LDH activity as an index of growth. Test compounds present at 2uM
Assay type: functional
Provide the reading as a plain figure in %.

compound | measure_unit | experimental_result
O=C(Nc1ccc([N+](=O)[O-])cc1Cl)c1cc2ccccc2cc1O | % | 94
Cl.O=C(NCCCCN1CCC(c2ccc3c(c2OCCO)CCCC3)CC1)c1ccc(-c2ccc(C(F)(F)F)cc2)cc1 | % | 98
Nc1nc2c(ncn2OC[C@H](CO)OCP(=O)(O)O)c(=O)[nH]1 | % | 94
O=C(N[C@@H](CC1CCCCC1)C(=O)NC1CCCc2ccccc21)c1ccc(O)c(-c2ccc(Cl)c(Cl)c2)c1 (some centres undefined) | % | 98
CN1CCN(Cc2ccc(-c3ccc4c(Nc5ccc(Oc6ccccc6)cc5)ccnc4c3)o2)CC1 | % | 99

Item "CNCCNCc1ccc(-c2cccc(-c3nc4cc(C(F)(F)F)ccc4[nH]3)c2)cc1.O=C(O)C(F)(F)F" has what recorded Inhibition?
98

Follow-up item: "NCCCCNc1cc(-c2ccnc(Nc3cccc(Cl)c3)n2)ccn1"
94

// repeat for "Cl.N#Cc1cccc(NC(=O)Nc2ccc3c(c2)CCN(C2CCC2)CC3)c1" and report
91

Queued: Cc1ccc(C(NC(=O)Cc2ccccc2)c2ccc3cccnc3c2O)cc1 (centres undefined)
94
